- target under test: T1, human latent myostatin (human, UniProt O14793 25-266; O14793 267-375)
- T1 construct: non-covalent complex of two propeptides and the mature homodimer; also called human myostatin latent form
- T1 sequence 1: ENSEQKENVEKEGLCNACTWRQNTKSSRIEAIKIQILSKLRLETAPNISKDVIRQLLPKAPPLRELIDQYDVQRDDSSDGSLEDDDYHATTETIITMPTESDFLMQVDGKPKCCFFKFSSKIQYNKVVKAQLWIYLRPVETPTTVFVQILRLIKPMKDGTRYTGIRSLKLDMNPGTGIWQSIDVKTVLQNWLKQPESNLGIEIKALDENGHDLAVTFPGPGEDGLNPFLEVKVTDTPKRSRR
- T1 sequence 2: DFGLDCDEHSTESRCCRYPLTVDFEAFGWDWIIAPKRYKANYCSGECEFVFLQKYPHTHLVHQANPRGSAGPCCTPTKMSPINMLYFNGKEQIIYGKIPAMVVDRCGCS
- assay remarks: SPR avidity condition pH7.4 37C; pH 7.4
parameter measured: kon (M⁻¹ s⁻¹)

MS_M103205H707-SG1/M103202L802-SK1 (antibody, human IgG1, kappa, V domains shown, also called MS1032LO04-SG1) VH: QVTLKESGPVLVKPTETLTLTCTVSGIDLSHYDISWVRQAPGKGLEWVGIISYAGSTYYASWAKGRLTISKDTSKNQVVLTMTNMDPVDTATYYCARGVPAYSHGGDLWGQGTLVTVSS VL: DIVMTQSPATLSLSPGERATLSCTSSQSVYHDNWLSWFQQKPGQPPKLLIYWASTLAYGVPSRFSGSGSGTDFTLTISSLQPEDAATYYCAGGYGGGLYAFGQGTKVEIKR | 1.33e+06
